Where do the numbers come from? From patent US20240174680A1.

Recorded pIC50 for the following molecules
Molecular target: CDK2/Cyclin E1 (Homo sapiens)
Assay: CDK2/Cyclin E1 Caliper LabChip EZ Reader mobility shift assay
Assay type: biochemical
Parameters: purchased Eurofins 14-475
Settings: read-out: Caliper Assay (CDK2/CCNE1): IC50
Method: Inhibition of CDK2/Cyclin E1 activity in the presence of compounds of the present disclosure was evaluated using a Caliper LabChip® EZ Reader mobility shift assay. […] The peptide substrate and product were measured, and the conversion ratio was used to determine the inhibition (as % activity and IC50 values) of CDK2/Cyclin E1. […]
pIC50: −log10 of the molar value.

molecule	pIC50
COC[C@H]1CCCN(C(=O)[C@@H](NC(=O)[C@@H]2CN(C(=O)c3cnn(Cc4ccccc4)c3)CC23CN(C(=O)[C@H]2CC2(C)C)C3)[C@@H](C)OC)C1	5.00 to 6.00
CNC(=O)[C@@H](NC(=O)[C@@H]1CN(C(=O)c2scnc2C2CC2)CC12CN(C(=O)[C@H]1CC1(C)C)C2)[C@@H](C)OCC1CCCCC1 [I-185A]	< 5.00
CNC(=O)[C@@H](NC(=O)[C@@H]1CN(C(=O)c2cnc(COC)s2)CC12CN(C(=O)[C@H]1CC1(C)C)C2)[C@@H](C)OCC1CCCCC1 [I-145A]	7.00 to 8.00
